- System: MEL-28
- runDescription: Inhibition of cell growth by counting cells, MEL-28
- Type: cell-based, human
- experimentalContext: Homo sapiens, SK-MEL-28, 72 h; three days of incubation; read-out: IC50 (molar) MEL-28
assayMetric: IC50 (nM)

compound | subjectOfTest | endpointUnit | obsValue
COc1cc2c(cc1O)CCN(C)[C@]21CS[C@@H]2c3c(OC(C)=O)c(C)c4c(c3[C@H](COC1=O)N1C[C@@H]3Cc5cc(C)c(OC)c(O)c5[C@H](C21)N3C)OCO4 (some centres unmarked) | MEL-28 | nM | 13.2
C=CCOC(=O)Oc1cc2c(cc1OC)[C@@]1(CS[C@@H]3c4c(OC(C)=O)c(C)c5c(c4[C@H](COC1=O)N1C3[C@H]3c4c(cc(C)c(OC)c4O)C[C@@H]([C@@H]1O)N3C)OCO5)NCC2 (some centres unmarked) | MEL-28 | nM | 0.592
CCCCCCCCCCCCCCCC(=O)Oc1cc2c(cc1OC)[C@@]1(CS[C@@H]3c4c(OC(C)=O)c(C)c5c(c4[C@H](COC1=O)N1C3[C@H]3c4c(cc(C)c(OC)c4O)C[C@@H]([C@@H]1O)N3C)OCO5)NCC2 (some centres unmarked) | MEL-28 | nM | 5
COc1cc2c(cc1O)CCN[C@]21CS[C@@H]2c3c(OC(C)=O)c(C)c4c(c3[C@H](COC1=O)N1C2[C@H]2c3c(cc(C)c(OC)c3OC(C)=O)C[C@@H]([C@@H]1O)N2C)OCO4 (some centres unmarked) | MEL-28 | nM | 1.25
COc1cc2c(cc1O)CCN[C@]21CS[C@@H]2c3c(O)c(C)c4c(c3[C@H](COC1=O)N1C2[C@H]2c3c(cc(C)c(OC)c3O)C[C@@H]([C@@H]1C#N)N2C)OCO4 (some centres unmarked) | MEL-28 | nM | 0.137
COc1cc2c(cc1O)CCN[C@]21CS[C@@H]2c3c(OC(=O)/C=C/c4ccccc4)c(C)c4c(c3[C@H](COC1=O)N1C2[C@H]2c3c(cc(C)c(OC)c3O)C[C@@H]([C@@H]1O)N2C)OCO4 (some centres unmarked) | MEL-28 | nM | 0.118
COc1cc2c(cc1OC(=O)OC(C)(C)C)CCN[C@]21CS[C@@H]2c3c(OC(C)=O)c(C)c4c(c3[C@H](COC1=O)N1C2[C@@H]2N[C@@H](Cc3cc(C)c(OC)c(O)c32)[C@@H]1C#N)OCO4 (some centres unmarked) | MEL-28 | nM | 0.583
COc1cc2c(cc1OC(=O)OC(C)(C)C)CCN[C@]21CS[C@@H]2c3c(OC(=O)C(F)(F)F)c(C)c4c(c3[C@H](COC1=O)N1C2[C@H]2c3c(cc(C)c(OC)c3O)C[C@@H]([C@@H]1C#N)N2C)OCO4 (some centres unmarked) | MEL-28 | nM | 1.08
COc1cc2c(cc1OC(=O)OC(C)(C)C)CCN[C@]21CS[C@@H]2c3c(O)c(C)c4c(c3[C@H](COC1=O)N1C2[C@H]2c3c(cc(C)c(OC)c3O)C[C@@H]([C@@H]1C#N)N2C)OCO4 (some centres unmarked) | MEL-28 | nM | 1.21
CCCC(=O)Oc1cc2c(cc1OC)[C@@]1(CS[C@@H]3c4c(OC(C)=O)c(C)c5c(c4[C@H](COC1=O)N1C3[C@H]3c4c(cc(C)c(OC)c4O)C[C@@H]([C@@H]1C#N)N3C)OCO5)NCC2 (some centres unmarked) | MEL-28 | nM | 0.119
COc1cc2c(cc1OC(=O)OCc1ccccc1)CCN[C@]21CS[C@@H]2c3c(OC(C)=O)c(C)c4c(c3[C@H](COC1=O)N1C2[C@H]2c3c(cc(C)c(OC)c3OC(=O)OCc3ccccc3)C[C@@H]([C@@H]1C#N)N2C)OCO4 (some centres unmarked) | MEL-28 | nM | 9.62

* * *

- Tested on: IGROV-ET
- runDescription: Inhibition of cells growth by colorimetric assay (SRB), IGROV-ET
- Format: cell-based
- experimentalContext: Homo sapiens, 48 h, IGROV-ET; SRB, 48 hours exposure; read-out: IGROV-ET GI50
Catalogue of GI50 values

compound | subjectOfTest | GI50 [nM]
COc1cc2c(cc1OC)[C@@]1(CS[C@@H]3c4c(OC(C)=O)c(C)c5c(c4[C@H](COC1=O)N1C3[C@H]3c4c(cc(C)c(OC)c4OC)C[C@@H]([C@@H]1O)N3C)OCO5)NCC2 (stereo partly drawn) [Compound 87] | IGROV-ET | 28.4
COC1=C(C)C(=O)C2=C(C1=O)[C@@H]1C3[C@@H]4SC[C@]5(NCCc6cc(O)c(OC)cc65)C(=O)OC[C@@H](c5c6c(c(C)c(OC(C)=O)c54)OCO6)N3[C@@H](O)[C@H](C2)N1C (stereo partly drawn) [Compound 101] | IGROV-ET | 30.5
C=COC(=O)Oc1cc2c(cc1OC)[C@@]1(CS[C@@H]3c4c(OC(C)=O)c(C)c5c(c4[C@H](COC1=O)N1C3[C@H]3c4c(cc(C)c(OC)c4O)C[C@@H]([C@@H]1O)N3C)OCO5)N(C(=O)OC=C)CC2 (stereo partly drawn) [Compound 100] | IGROV-ET | 63.2
COc1cc2c(cc1O)CCN[C@]21CS[C@@H]2c3c(OC(C)=O)c(C)c4c(c3[C@H](COC1=O)N1C2[C@H]2c3c(cc(C)c(OC)c3OC(C)C)C[C@@H]([C@@H]1O)N2C)OCO4 (stereo partly drawn) [Compound 102] | IGROV-ET | 101
COc1cc2c(cc1O)CCN(C)[C@]21CS[C@@H]2c3c(OC(C)=O)c(C)c4c(c3[C@H](COC1=O)N1C2[C@H]2c3c(cc(C)c(OC)c3O)C[C@@H]([C@@H]1O)N2C)OCO4 (stereo partly drawn) [Compound 93] | IGROV-ET | 21.5
C=COC(=O)N1CCc2cc(O)c(OC)cc2[C@@]12CS[C@@H]1c3c(OC(C)=O)c(C)c4c(c3[C@H](COC2=O)N2C1[C@H]1c3c(cc(C)c(OC)c3O)C[C@@H]([C@@H]2O)N1C)OCO4 (stereo partly drawn) [Compound 95] | IGROV-ET | 50.5

* * *

- System: IGROV-ET
- runDescription: Inhibition of cells growth by colorimetric assay (SRB), IGROV-ET
- Assay type: cell-based
- experimentalContext: read-out: IGROV-ET LC50; IGROV-ET; SRB, 48 hours exposure
assayMetric: CC50

compound | obsValue
COc1cc2c(cc1OC(=O)Cc1cc(=O)oc3cc(N(C)C)ccc13)CCN[C@]21CS[C@@H]2c3c(OC(C)=O)c(C)c4c(c3[C@H](COC1=O)N1C2[C@H]2c3c(cc(C)c(OC)c3OC(=O)Cc3cc(=O)oc5cc(N(C)C)ccc35)C[C@@H]([C@@H]1O)N2C)OCO4 (stereo partly shown) | 303 nM

* * *

- Tested on: K-562
- runDescription: Inhibition of cells growth by colorimetric assay (SRB), K-562
- Type: cell-based
- experimentalContext: read-out: K-562 LC50; K-562; SRB, 48 hours exposure

compound | LC50 (50% cell killing) (nM)
COc1cc2c(cc1OC(=O)Cc1cc(=O)oc3cc(N(C)C)ccc13)CCN[C@]21CS[C@@H]2c3c(OC(C)=O)c(C)c4c(c3[C@H](COC1=O)N1C2[C@H]2c3c(cc(C)c(OC)c3OC(=O)Cc3cc(=O)oc5cc(N(C)C)ccc35)C[C@@H]([C@@H]1O)N2C)OCO4 (some centres unmarked) [Compound 77] | 37.9
COc1cc2c(cc1OC(=O)Cc1cc(=O)oc3cc(N(C)C)ccc13)CCN[C@]21CS[C@@H]2c3c(OC(C)=O)c(C)c4c(c3[C@H](COC1=O)N1C2[C@H]2c3c(cc(C)c(OC)c3OC(=O)Cc3cc(=O)oc5cc(N(C)C)ccc35)C[C@@H]([C@@H]1O)N2C)OCO4 (some centres unmarked) [Compound 78] | 7.5

* * *

- Tested on: A-549
- runDescription: Inhibition of cells growth by colorimetric assay (SRB), A-549
- Assay type: cell-based
- experimentalContext: A-549; SRB, 48 hours exposure; read-out: A-549 LC50
- Procedure: 2°.—Inhibition of Cells Growth by Colorimetric Assay. A colorimetric type of assay, using sulforhodamine B (SRB) reaction has been adapted for a quantitative measurement of cell growth and viability [following the technique described by Philip Skehan, et al. (1990), New colorimetric cytotoxicity assay for anticancer drug screening, J. Natl. Cancer Inst., 82:1107-1112] […] The values for mean+/−SD of data from triplicate wells are calculated. […]

compound | endpointUnit | LC50 (50% lethal concentration)
COc1cc2c(cc1OC(=O)OC(C)(C)C)CCNC21CSC2c3c(OC(=O)CCCCC4SCC5NC(=O)NC54)c(C)c4c(c3C(COC1=O)N1C(C#N)C3Cc5cc(C)c(OC)c(O)c5C(C21)N3C)OCO4 (stereo not shown) [Compound 123] | nM | 73.3
